# assay-target: human B1R receptor (hB1R) (Homo sapiens)
# Construct: expressed in transfected cells; host or cells: CHO K1 cells
# Sequence (P46663 whole entry): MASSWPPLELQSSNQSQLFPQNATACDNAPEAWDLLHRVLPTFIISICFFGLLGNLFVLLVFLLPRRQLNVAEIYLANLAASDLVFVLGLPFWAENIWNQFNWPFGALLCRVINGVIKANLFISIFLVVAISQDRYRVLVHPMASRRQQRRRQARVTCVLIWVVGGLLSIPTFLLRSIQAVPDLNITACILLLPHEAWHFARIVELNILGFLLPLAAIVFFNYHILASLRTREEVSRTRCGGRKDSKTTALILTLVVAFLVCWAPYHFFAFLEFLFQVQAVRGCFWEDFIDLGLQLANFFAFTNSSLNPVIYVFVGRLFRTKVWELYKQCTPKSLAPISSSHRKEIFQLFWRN
# procedure-summary: Functional investigation on the bradykinin 1 receptor (B1R), FLIPR Ca2+ assay, hB1R cells
# Format: cell-based
# measurement-parameters: CHO-K1, 10 μM test substance; CHO K1 cells with human B1R; agonist Lys-Des-Arg9 bradykinin; % of maximum achievable inhibition; read-out: B1R antagonism, human [10 μM] % inhibition
# reported inhibition at 10 µM; entries follow
value-type: inhibition at 10 µM (%)

COc1cc(C)c(S(=O)(=O)Nc2cccc3ccn(CC(=O)N4CCC(CCN5CCCC5)CC4)c23)c(C)c1; 95
COc1cc(C)c(S(=O)(=O)Nc2cccc3ccn(CCC(=O)N4CCC5(CC4)CCN(c4ccncc4)CC5)c23)c(C)c1; 99
COc1cc(C)c(S(=O)(=O)Nc2cccc3ccn(CCC(=O)NCCC4CCN(c5ccncc5)CC4)c23)c(C)c1; 100

----------
# reported inhibition at 10 µM; entries follow
# assay-target: B1R receptor of the rat (rB1R) (Rattus norvegicus, UniProt P97583)
# Construct: expressed in transfected cells; host or cells: CHO K1 cells
# Sequence (P97583 whole entry): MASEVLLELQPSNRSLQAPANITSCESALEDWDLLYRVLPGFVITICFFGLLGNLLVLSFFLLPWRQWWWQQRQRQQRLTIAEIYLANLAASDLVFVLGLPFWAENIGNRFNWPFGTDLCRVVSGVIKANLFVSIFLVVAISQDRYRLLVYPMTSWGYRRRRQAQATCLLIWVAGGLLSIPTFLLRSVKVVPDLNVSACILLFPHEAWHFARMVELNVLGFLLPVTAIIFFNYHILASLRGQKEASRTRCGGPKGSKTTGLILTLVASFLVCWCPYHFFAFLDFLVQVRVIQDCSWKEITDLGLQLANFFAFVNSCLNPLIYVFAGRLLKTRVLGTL
# procedure-summary: Functional investigation on the bradykinin 1 receptor (B1R), FLIPR Ca2+ assay, rB1R cells
# Assay type: cell-based
# measurement-parameters: CHO-K1, 10 μM test substance; CHO K1 cells with rat B1R; agonist Des-Arg9 bradykinin; % of maximum achievable inhibition; read-out: B1R antagonism, rat [10 μM] % inhibition
# Procedure: The indication in % activation is based on the Ca^2+ signal after addition of Lys-Des-[…] bradykinin (0.5 nM) or Des-[…] bradykinin (100 nM). Antagonists lead to a suppression of the Ca^2+ influx following administration of the agonist. […] According to this assay, the Ca^2+ inflow through the channel is quantified with the aid of a Ca^2+-sensitive dye (Fluo-4 type, Molecular Probes Europe BV, Leiden, Netherlands) in a fluorescent imaging plate reader (FLIPR, Molecular Devices, Sunnyvale, USA). […]
value-type: inhibition at 10 µM (%)

COc1cc(C)c(S(=O)(=O)Nc2ccc3ccn(CC(=O)N(C)CCCN4CCC(c5cccs5)(N(C)C)CC4)c3c2)c(C)c1; 92
COc1cc(C)c(S(=O)(=O)Nc2ccc3ccn(CC(=O)N4CCC(CCN5CCCC5)CC4)c3c2)c(C)c1; 72
COc1cc(C)c(S(=O)(=O)Nc2ccc3ccn(CCC(=O)N(C)CCC4CCC(c5ccccc5)(N(C)C)CC4)c3c2)c(C)c1 (centres unmarked); 74
COc1cc(C)c(S(=O)(=O)Nc2cccc3ccn(CC(=O)N(C)CCC4CCC(c5ccccc5)(N(C)C)CC4)c23)c(C)c1 (centres unmarked); 104
COc1cc(C)c(S(=O)(=O)Nc2ccc3ccn(CC(=O)N(C)CCC4CCC(c5ccccc5)(N(C)C)CC4)c3c2)c(C)c1 (centres unmarked); 96
